# Test system: SNB-75 CNS
# TEST_PROTOCOL: NCI-60 one-dose screen, 48 h (100 = growth as untreated, 0 = no growth, -100 = all killed)
# EXPERIMENTAL_SETUP: 10 µM unless noted
# Method: Growth inhibition of the SNB-75 human tumor cell line is measured as a screen for anti-cancer activity. Cells are grown in 96 well plates and exposed to the test compound for 48 hours. Compounds are tested at a single concentration, which is 10^-5 M for most compounds. The reported endpoint is percent growth (GI% or GIPRCNT), where numbers from 0 - 100% represent growth inhibition, and numbers from -100% - 0 represent cell death. For example, a value of 40 represents 60% growth inhibition. […]
This is part of a sample that, as a whole, favours compounds with a hit. Of some 83,000 tested, about 20% had one in any assay.
The entries below come with measured growth values attached.
Respond numerically; units are % and should not be typed.

molecule "CCOC(=O)c1sc(N)nc1-c1ccccc1" , growth observed: 94.7

molecule "N#C/C(=C1C=C/C(=N/O)C(Br)=C/1)c1ccccc1" , growth observed: 23

molecule "N#CCCOc1ccccc1" , growth observed: 101

molecule "CCOC(=O)C(CNc1ccccc1)C(=O)OCC" , growth observed: 77.9

molecule NCCSC(C[N+](=O)[O-])c1ccccc1Cl (configuration not stated) , growth observed: 105

molecule "COc1ccc(NC(=S)Nc2ccccn2)cc1" , growth observed: 152

molecule "OCc1ccccn1" , growth observed: 74.5

----------
The entries below come with measured growth values attached.
# System: SF-539 CNS
# TEST_PROTOCOL: NCI-60 one-dose screen, 48 h (100 = growth as untreated, 0 = no growth, -100 = all killed)
# EXPERIMENTAL_SETUP: 10 µM unless noted
The panel holds about 83,000 compounds, 20% with a hit somewhere; the sample as a whole holds those more often. Activity calls are given as the source filed them. The calls were made as follows: active = growth percent below 10; inactive = the rest.

C1CCCCNCCC1: 113% (inactive)
CC(=O)Nc1cc(S(=O)(=O)O)cc2cc(S(=O)(=O)O)c(N=Nc3ccccc3)c(O)c12: 105% (inactive)

Assay SF-539 CNS, sample "Nc1ccc2[nH]c(-c3ccccc3)cc(=O)c2c1" , growth read: 88.5% (inactive)

Assay SF-539 CNS, sample CC1(c2ccc3ccccc3c2)CCC(=O)O1 (stereo unspecified) , growth read: 95.7% (inactive)

Assay SF-539 CNS, sample "Cc1ccc2nc3c(nc2c1)-c1cccc2cccc-3c12" , growth read: 85.4% (inactive)

Assay SF-539 CNS, sample "Cc1ccc(S(=O)(=O)NCN2C(=O)c3ccccc3C2=O)cc1" , growth read: 112% (inactive)

Assay SF-539 CNS, sample "Fc1ccccc1Nc1n[nH]c(=S)s1" , growth read: 105% (inactive)

Assay SF-539 CNS, sample "CCCCCCCCCCCCCCCCOc1ccc(C)cc1" , growth read: 93.2% (inactive)

----------
# System: SR leukemia
# TEST_PROTOCOL: NCI-60 one-dose screen, 48 h (100 = growth as untreated, 0 = no growth, -100 = all killed)
# EXPERIMENTAL_SETUP: 10 µM unless noted
This is part of a sample that, as a whole, favours compounds with a hit. Of some 83,000 tested, about 20% had one in any assay.
MEASURED_QUANTITY: growth (%)
Respond numerically; units are % and should not be typed.

CCC(C)C1(C2CCCC2)NC(=O)NC1=O (stereo unspecified): 92
CN(Cc1ccccc1)Cc1ccccc1: 105
CC(=O)Nc1ccc2cc3ccc(NC(C)=O)cc3nc2c1: 72.3
O=C(N/N=C/c1cccc2ccccc12)C1CC1: 93.6
OCCN1CCN(CCCN2c3ccccc3Sc3ccc(Cl)cc32)CC1: 36.6

Then this compound:
compound "CC1=C(/C=C/C(C)=C/C=C/C(C)=C/C(=O)Nc2ccc(O)cc2)C(C)(C)CCC1" , growth observed: -4.85

----------
The entries below come with measured growth values attached.
# Tested on: SK-MEL-2 melanoma
# TEST_PROTOCOL: NCI-60 one-dose screen, 48 h (100 = growth as untreated, 0 = no growth, -100 = all killed)
# EXPERIMENTAL_SETUP: 10 µM unless noted
This is part of a sample that, as a whole, favours compounds with a hit. Of some 83,000 tested, about 20% had one in any assay. Calls of active or inactive are those of the source. How the source made its calls: active means growth percent below 10; inactive means the rest.

CC(C)(O)Cn1cc(-c2ccc3nc(OC4CC4)ccc3c2)c2c(N)ncnc21: 87.8% (inactive)
C1CCCCNCCC1: 115% (inactive)
Nc1ccc2[nH]c(-c3ccccc3)cc(=O)c2c1: 78.8% (inactive)

compound "O=C1OC2(c3ccccc31)c1ccc(O)c(O)c1Oc1c2ccc(O)c1O" , growth observed: 85.1% (inactive)

compound "O=[N+]([O-])c1ccc2nc3c4ccccc4c4ccccc4c3nc2c1" , growth observed: 97.6% (inactive)

compound O=C1c2c(O)cc(O)cc2OC(c2ccc(O)c(O)c2)C1O (configuration not stated) , growth observed: 105% (inactive)

compound "CCOC(=O)C(CNc1ccccc1)C(=O)OCC" , growth observed: 109% (inactive)

----------
The entries below come with measured growth values attached.
# Tested on: 786-0 renal
# TEST_PROTOCOL: NCI-60 one-dose screen, 48 h (100 = growth as untreated, 0 = no growth, -100 = all killed)
# EXPERIMENTAL_SETUP: 10 µM unless noted
This is part of a sample that, as a whole, favours compounds with a hit. Of some 83,000 tested, about 20% had one in any assay.
Respond numerically; units are % and should not be typed.

Cc1cccc(/C=C\C(=O)c2ccccc2)c1: 79.7
Nc1n[nH]c(=S)n1-c1ccc(Cl)cc1: 93.7
CC1=C(/C=C/C(C)=C/C=C/C(C)=C/C(=O)Nc2ccc(O)cc2)C(C)(C)CCC1: 52.8
Fc1ccccc1Nc1n[nH]c(=S)s1: 101
CNC(=O)c1cccnc1: 99.6
CC1(c2ccc3ccccc3c2)CCC(=O)O1 (configuration not stated): 103

Then this molecule:
molecule "S=C1SCN(Cc2ccccc2)CN1Cc1ccccc1" , growth observed: 49.8

----------
# Test system: MALME-3M melanoma
# TEST_PROTOCOL: NCI-60 one-dose screen, 48 h (100 = growth as untreated, 0 = no growth, -100 = all killed)
# EXPERIMENTAL_SETUP: 100 µM
The panel holds about 83,000 compounds, 20% with a hit somewhere; the sample as a whole holds those more often.
The entries below come with measured growth values attached.
Respond numerically; units are % and should not be typed.

Here is how some molecules turned out for growth.
COc1ccc(Cl)cc1C(=O)NCCc1ccc(S(=O)(=O)NC(=O)NC2CCCCC2)cc1: 71.9
O=C(O)c1sccc1O: 78.8
CC#C[C@]1(O)CC[C@H]2[C@@H]3CCC4=CC(=O)CCC4=C3[C@@H](c3ccc4c(c3)OCO4)C[C@@]21C: -29.8

Then this molecule:
molecule Cc1[nH]c(-c2nc3ccccc3[nH]2)c(C)c1C(=O)NC(C)C1CCCCC1 (centres undefined) , growth observed: -72.6

----------
# System: NCI-H460 lung
# TEST_PROTOCOL: NCI-60 one-dose screen, 48 h (100 = growth as untreated, 0 = no growth, -100 = all killed)
# EXPERIMENTAL_SETUP: 10 µM unless noted
# Procedure: Growth inhibition of the NCI-H460 human Non-Small Cell Lung tumor cell line is measured as a screen for anti-cancer activity. Cells are grown in 96 well plates and exposed to the test compound for 48 hours. Compounds are tested at a single concentration, which is 10^-5 M for most compounds. The reported endpoint is percent growth (GI% or GIPRCNT), where numbers from 0 - 100% represent growth inhibition, and numbers from -100% - 0 represent cell death. […]
This is part of a sample that, as a whole, favours compounds with a hit. Of some 83,000 tested, about 20% had one in any assay.
MEASURED_QUANTITY: growth (%)
Respond numerically; units are % and should not be typed.

Here is how some compounds turned out for growth.
COc1ccc2ccccc2c1/C=N/N1CCCCC1: 109
CCOC(=O)c1sc(N)nc1-c1ccccc1: 104

compound "S=C(S)N1CCCC1" , growth observed: 62.2

compound "CC1=C(/C=C/C(C)=C/C=C/C(C)=C/C(=O)Nc2ccc(O)cc2)C(C)(C)CCC1" , growth observed: 27.7

----------
The entries below come with measured growth values attached.
# Test system: NCI-H522 lung
# TEST_PROTOCOL: NCI-60 one-dose screen, 48 h (100 = growth as untreated, 0 = no growth, -100 = all killed)
# EXPERIMENTAL_SETUP: 10 µM unless noted
The panel holds about 83,000 compounds, 20% with a hit somewhere; the sample as a whole holds those more often.
Respond numerically; units are % and should not be typed.

compound CC(=O)NC(Cc1ccccc1)C(=O)Oc1ccc2ccccc2c1 (stereo not drawn) , growth observed: 98.2
